system: human Cellular Inhibitor of Apoptosis-1 RNA; assay: Inhibition of Cellular Inhibitor of Apoptosis-1 mRNA levels by quantitative real-time PCR after oligonucleotide treatment of cells; assay type: cell-based; conditions: phosphorothioate oligodeoxynucleotides; oligonucleotide at final concentration of 150 nM with LIPOFECTIN; real-time PCR; averages from three experiments
Strand notation (5' to 3'): a small letter for the sugar, then the base; units joined by * are phosphorothioate-linked, units joined directly phosphodiester-linked; [ ] holds rarer units or linkages, { } end groups; capitals alone tell only the bases. d = 2'-deoxy (DNA)
Kindly supply the reported % Inhibition of Cellular Inhibitor of Apoptosis-1 mRNA levels values for the records listed here.
Answer shape: numeric part, then the unit.

Below are worked cases with known answers.
>  <substance>
ISIS 23346: phosphorothioate oligodeoxynucleotide ggtaacctaagtgctatt, 5′ UTR target site 915 (antisense dG*dG*dT*dA*dA*dC*dC*dT*dA*dA*dG*dT*dG*dC*dT*dA*dT*dT)

>  <endpoint_value>
0%

$$$$
>  <substance>
ISIS 23360: phosphorothioate oligodeoxynucleotide ttcccaacacctcaagcc, Coding target site 2093 (antisense dT*dT*dC*dC*dC*dA*dA*dC*dA*dC*dC*dT*dC*dA*dA*dG*dC*dC)

>  <endpoint_value>
55%

$$$$
>  <substance>
ISIS 23342: phosphorothioate oligodeoxynucleotide tatatgcaggcttctttc, 5′ UTR target site 684 (antisense dT*dA*dT*dA*dT*dG*dC*dA*dG*dG*dC*dT*dT*dC*dT*dT*dT*dC)

>  <endpoint_value>
23%

$$$$

# evaluate next
Consider the substance ISIS 23334: phosphorothioate oligodeoxynucleotide ctagtgttatcagaaacg, 5′ UTR target site 139 (antisense dC*dT*dA*dG*dT*dG*dT*dT*dA*dT*dC*dA*dG*dA*dA*dA*dC*dG) and give its measured % Inhibition of Cellular Inhibitor of Apoptosis-1 mRNA levels. 0%
